System: Escherichia coli
Test: Inhibition of Escherichia coli DNA gyrase using relaxed pHOT1 plasmid DNA as substrate assessed as inhibition of DNA supercoiling up to 100 uM after 30 mins by agarose gel electrophoresis
Activity calls are given as the source filed them. The rule behind the calls is not given here.
measurement_kind: inhibition

These recorded examples may help you get a feel for the data.
substance_smiles	assay_target	measurement_kind	result
COc1ccc(-c2nc3ccc(-c4nc5ccc(N6CCN(c7ccncc7)CC6)cc5[nH]4)cc3[nH]2)cc1OC	Escherichia coli	inhibition	inactive
CCOc1ccc(-c2nc3ccc(-c4nc5ccc(N6CCN(CC)CC6)cc5[nH]4)cc3[nH]2)cc1	Escherichia coli	inhibition	inactive
CCCN1CCN(c2ccc3nc(-c4ccc5nc(-c6ccc(OCC)cc6)[nH]c5c4)[nH]c3c2)CC1	Escherichia coli	inhibition	inactive
COc1ccc(-c2nc3ccc(-c4nc5ccc(N6CCN(c7ncccn7)CC6)cc5[nH]4)cc3[nH]2)cc1OC	Escherichia coli	inhibition	inactive
CCOc1ccc(-c2nc3ccc(-c4nc5ccc(N6CCN(CCN(C)C)CC6)cc5[nH]4)cc3[nH]2)cc1	Escherichia coli	inhibition	inactive

We now examine a further molecule.
Asked: GET /values?readout=inhibition&system=Escherichia coli&item= CCCN1CCN(c2ccc3nc(-c4ccc5nc(-c6ccc(OC)c(OC)c6)[nH]c5c4)[nH]c3c2)CC1
Given back: inactive

---

Recorded measurements of pIC50, one per entry
Assay: Inhibition of Escherichia coli DNA topoisomerase-1A using supercoiled pHOT1 plasmid DNA as substrate assessed as inhibition of DNA relaxation after 30 mins by agarose gel electrophoresis
Please keep in mind that pIC50 is minus log10 of the molar concentration; only the number is needed.

substance_smiles	pIC50
CCCN1CCN(c2ccc3nc(-c4ccc5nc(-c6ccc(O)cc6)[nH]c5c4)[nH]c3c2)CC1	4.68
O=C(NCCN1CCN(c2ccc3nc(-c4ccc5nc(-c6ccc(O)cc6)[nH]c5c4)[nH]c3c2)CC1)C(F)(F)F	4.34
CN(C)CCN1CCN(c2ccc3nc(-c4ccc5nc(-c6ccc(O)cc6)[nH]c5c4)[nH]c3c2)CC1	5.10

Asked: Would you kindly share the measured pIC50 for CCCN1CCN(c2ccc3nc(-c4ccc5nc(-c6ccc(OC)c(OC)c6)[nH]c5c4)[nH]c3c2)CC1 ?
Given back: 5.52

Asked: Would you kindly share the measured pIC50 for CCOc1ccc(-c2nc3ccc(-c4nc5ccc(N6CCN(CC)CC6)cc5[nH]4)cc3[nH]2)cc1 ?
Given back: 5.24

Asked: Would you kindly share the measured pIC50 for CCOc1ccc(-c2nc3ccc(-c4nc5ccc(N6CCN(CCN(C)C)CC6)cc5[nH]4)cc3[nH]2)cc1 ?
Given back: 5.03

---

Test system: Escherichia coli
Experiment: Antibacterial activity against Escherichia coli ATCC 25922 assessed as growth inhibition after 18 to 24 hrs by broth microdilution method
Format: functional
measurement_kind: log10 MIC90 (log10 of the value in µg/mL)
Note: values are log10 of MIC90 expressed in µg/mL.

These recorded examples may help you get a feel for the data.
substance_smiles	assay_target	log10 MIC90
COc1ccc(-c2nc3ccc(-c4nc5ccc(N6CCN(c7ncccn7)CC6)cc5[nH]4)cc3[nH]2)cc1OC	Escherichia coli	1.69
CCCN1CCN(c2ccc3nc(-c4ccc5nc(-c6ccc(OCC)cc6)[nH]c5c4)[nH]c3c2)CC1	Escherichia coli	0.52
CCCN1CCN(c2ccc3nc(-c4ccc5nc(-c6ccc(OC)c(OC)c6)[nH]c5c4)[nH]c3c2)CC1	Escherichia coli	1.10
CCOc1ccc(-c2nc3ccc(-c4nc5ccc(N6CCN(CCN(C)C)CC6)cc5[nH]4)cc3[nH]2)cc1	Escherichia coli	1.42
CCOc1ccc(-c2nc3ccc(-c4nc5ccc(N6CCN(CC)CC6)cc5[nH]4)cc3[nH]2)cc1	Escherichia coli	0.49

Asked: GET /values?readout=log10 MIC90&system=Escherichia coli&item= CCN1CCN(c2ccc3nc(-c4ccc5nc(-c6ccc(OC)c(OC)c6)[nH]c5c4)[nH]c3c2)CC1
Given back: 1.17

Asked: GET /values?readout=log10 MIC90&system=Escherichia coli&item= COc1ccc(-c2nc3ccc(-c4nc5ccc(N6CCN(c7ccncc7)CC6)cc5[nH]4)cc3[nH]2)cc1OC
Given back: 0.57

Asked: GET /values?readout=log10 MIC90&system=Escherichia coli&item= CCOc1ccc(-c2nc3ccc(-c4nc5ccc(N6CCN(CCNC(=O)C(F)(F)F)CC6)cc5[nH]4)cc3[nH]2)cc1
Given back: 1.32

---

Tested on: Escherichia coli
Assay: Antibacterial activity against ampicillin/trimethoprim/piperacillin-resistant Escherichia coli MKNJ isolated from water source assessed as growth inhibition after 18 to 24 hrs by broth microdilution method
Recorded measurements of MIC90, one per entry
Put your answer as a value accompanied by its unit after it.

These recorded examples may help you get a feel for the data.
substance_smiles	MIC90
CCOc1ccc(-c2nc3ccc(-c4nc5ccc(N6CCN(CCN(C)C)CC6)cc5[nH]4)cc3[nH]2)cc1	30.6 µg/mL
COc1ccc(-c2nc3ccc(-c4nc5ccc(N6CCN(c7ncccn7)CC6)cc5[nH]4)cc3[nH]2)cc1OC	61.4 µg/mL
COc1ccc(-c2nc3ccc(-c4nc5ccc(N6CCN(c7ccncc7)CC6)cc5[nH]4)cc3[nH]2)cc1OC	3.7 µg/mL
CCOc1ccc(-c2nc3ccc(-c4nc5ccc(N6CCN(CC)CC6)cc5[nH]4)cc3[nH]2)cc1	7.6 µg/mL
CCCN1CCN(c2ccc3nc(-c4ccc5nc(-c6ccc(OCC)cc6)[nH]c5c4)[nH]c3c2)CC1	3.5 µg/mL

We now examine a further compound.
Asked: Would you kindly share the measured MIC90 for CCCN1CCN(c2ccc3nc(-c4ccc5nc(-c6ccc(OC)c(OC)c6)[nH]c5c4)[nH]c3c2)CC1 ?
Given back: 7.6 µg/mL

---

System: Escherichia coli
Experiment: Bactericidal activity against ampicillin/chloramphenicol/ciprofloxacin/gentamicin/tetracycline-resistant Escherichia coli 401 by agar plating method
Format: functional
Recorded measurements of MBC, one per entry
Provide the reading as a plain figure in µg/mL.

substance_smiles	assay_target	unit_text	MBC
CCOc1ccc(-c2nc3ccc(-c4nc5ccc(N6CCN(CCN(C)C)CC6)cc5[nH]4)cc3[nH]2)cc1	Escherichia coli	µg/mL	32

Asked: Would you kindly share the measured MBC for COc1ccc(-c2nc3ccc(-c4nc5ccc(N6CCN(c7ncccn7)CC6)cc5[nH]4)cc3[nH]2)cc1OC ?
Given back: 32

Asked: Would you kindly share the measured MBC for COc1ccc(-c2nc3ccc(-c4nc5ccc(N6CCN(c7ccncc7)CC6)cc5[nH]4)cc3[nH]2)cc1OC ?
Given back: 2

---

Test system: Escherichia coli
Assay: Antibacterial activity against ampicillin/chloramphenicol/ciprofloxacin/gentamicin/tetracycline-resistant Escherichia coli 401 assessed as growth inhibition after 18 to 24 hrs by broth microdilution method
Type: functional
measurement_kind: MIC90 (µg/mL)
Provide the reading as a plain figure in µg/mL.

substance_smiles	unit_text	MIC90
CCOc1ccc(-c2nc3ccc(-c4nc5ccc(N6CCN(CC)CC6)cc5[nH]4)cc3[nH]2)cc1	µg/mL	3.7
CCOc1ccc(-c2nc3ccc(-c4nc5ccc(N6CCN(CCN(C)C)CC6)cc5[nH]4)cc3[nH]2)cc1	µg/mL	30.4
CCCN1CCN(c2ccc3nc(-c4ccc5nc(-c6ccc(OCC)cc6)[nH]c5c4)[nH]c3c2)CC1	µg/mL	1.7
CCCN1CCN(c2ccc3nc(-c4ccc5nc(-c6ccc(OC)c(OC)c6)[nH]c5c4)[nH]c3c2)CC1	µg/mL	7.2
COc1ccc(-c2nc3ccc(-c4nc5ccc(N6CCN(c7ccncc7)CC6)cc5[nH]4)cc3[nH]2)cc1OC	µg/mL	1.6

Asked: Would you kindly share the measured MIC90 for COc1ccc(-c2nc3ccc(-c4nc5ccc(N6CCN(c7ncccn7)CC6)cc5[nH]4)cc3[nH]2)cc1OC ?
Given back: 29

---

System: Escherichia coli
Test: Antibacterial activity against chloramphenicol/ampicillin/kanamycin/trimethoprim/ciprofloxacin/nalidixic acid-resistant Escherichia coli 132 assessed as growth inhibition after 18 to 24 hrs by broth microdilution method
Format: functional
measurement_kind: MIC50 (µg/mL)
Provide the reading as a plain figure in µg/mL.

These recorded examples may help you get a feel for the data.
substance_smiles	MIC50, µg/mL
COc1ccc(-c2nc3ccc(-c4nc5ccc(N6CCN(c7ncccn7)CC6)cc5[nH]4)cc3[nH]2)cc1OC	64
CCCN1CCN(c2ccc3nc(-c4ccc5nc(-c6ccc(OC)c(OC)c6)[nH]c5c4)[nH]c3c2)CC1	64
CCCN1CCN(c2ccc3nc(-c4ccc5nc(-c6ccc(OCC)cc6)[nH]c5c4)[nH]c3c2)CC1	2
CCOc1ccc(-c2nc3ccc(-c4nc5ccc(N6CCN(CC)CC6)cc5[nH]4)cc3[nH]2)cc1	4
COc1ccc(-c2nc3ccc(-c4nc5ccc(N6CCN(c7ccncc7)CC6)cc5[nH]4)cc3[nH]2)cc1OC	2

Asked: GET /values?readout=MIC50&system=Escherichia coli&item= CCOc1ccc(-c2nc3ccc(-c4nc5ccc(N6CCN(CCN(C)C)CC6)cc5[nH]4)cc3[nH]2)cc1
Given back: 64
